- MEASURED TARGET: human V1a receptor (Homo sapiens, UniProt P37288)
- Sequence (P37288 whole entry): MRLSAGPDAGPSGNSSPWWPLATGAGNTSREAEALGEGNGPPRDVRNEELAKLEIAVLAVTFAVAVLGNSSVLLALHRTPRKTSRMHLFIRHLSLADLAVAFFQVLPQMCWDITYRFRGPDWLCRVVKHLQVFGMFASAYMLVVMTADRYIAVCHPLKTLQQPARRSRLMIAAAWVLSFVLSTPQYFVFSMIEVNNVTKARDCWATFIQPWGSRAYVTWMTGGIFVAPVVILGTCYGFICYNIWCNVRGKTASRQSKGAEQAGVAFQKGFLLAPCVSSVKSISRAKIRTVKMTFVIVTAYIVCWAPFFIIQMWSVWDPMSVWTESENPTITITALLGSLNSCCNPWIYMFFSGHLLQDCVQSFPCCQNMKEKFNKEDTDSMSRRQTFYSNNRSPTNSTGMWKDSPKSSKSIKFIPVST
- ASSAY NAME: Cellular in vitro assay for determining vasopressin receptor activity, V1a receptor cell line (CHO, aequorin luminescence)
- EXPERIMENTAL SETUP: CHO cell line transfected with human V1a receptor; [Arg]-vasopressin at EC50 concentration; read-out: IC50 hV1a
pIC50: −log10 of the molar value.
Classification field. Basis: pIC50. Definitions: lower bin: < 7; middle bin: ≥ 7 and < 8; upper bin: ≥ 8

MOLECULE	MEASURED TARGET	GROUP LABEL
O=C1CN(C(=O)c2nc(Cn3nc(-c4ccc(Cl)cc4)n(C[C@H](O)C(F)(F)F)c3=O)nn2-c2cnccc2C(=O)N[C@H]2C[C@H]2F)CCN1 (racemic) [Example 517]	human V1a receptor (Homo sapiens, UniProt P37288)	lower bin
O=C(Cc1cccnc1)Nc1ncccc1-n1cnc(Cn2nc(-c3ccc(Cl)cc3)n(C[C@H](O)C(F)(F)F)c2=O)n1 [Example 89]	human V1a receptor (Homo sapiens, UniProt P37288)	middle bin
O=C(Nc1cccnc1-n1cnc(Cn2nc(-c3ccc(Cl)cc3)n(C[C@H](O)C(F)(F)F)c2=O)n1)OCC(F)(F)F [Example 62]	human V1a receptor (Homo sapiens, UniProt P37288)	middle bin
O=C(c1ccccc1-n1cnc(Cn2nc(-c3ccc(Cl)cc3)n(C[C@H](O)C(F)(F)F)c2=O)n1)N1CC=CCC1 [Example 353]	human V1a receptor (Homo sapiens, UniProt P37288)	upper bin
CC1(C)CNCCN1C(=O)c1ncccc1-n1cnc(Cn2nc(-c3ccc(Cl)cc3)n(C[C@H](O)C(F)(F)F)c2=O)n1 [Example 453]	human V1a receptor (Homo sapiens, UniProt P37288)	lower bin
O=C(NCC1CC1)c1cccc(Cl)c1-n1cnc(Cn2nc(-c3ccc(Cl)cc3)n(C[C@H](O)C(F)(F)F)c2=O)n1 [Example 370]	human V1a receptor (Homo sapiens, UniProt P37288)	middle bin
CC[C@H](C)NC(=O)c1ccccc1-n1cnc(Cn2nc(-c3ccc(Cl)cc3)n(C[C@H](O)C(F)(F)F)c2=O)n1 [Example 346]	human V1a receptor (Homo sapiens, UniProt P37288)	upper bin
O=C(Nc1ncccc1-n1cnc(Cn2nc(-c3ccc(Cl)cc3)n(C[C@H](O)C(F)(F)F)c2=O)n1)c1ccno1 [Example 163]	human V1a receptor (Homo sapiens, UniProt P37288)	middle bin
O=C(NCC(F)(F)F)c1ccccc1-n1cnc(Cn2nc(-c3ccc(Cl)cc3)n(C[C@@H](O)C(F)(F)F)c2=O)n1 [Example 168]	human V1a receptor (Homo sapiens, UniProt P37288)	middle bin
O=C(Nc1ccc(F)cc1O)c1ccccc1-n1cnc(Cn2nc(-c3ccc(Cl)cc3)n(C[C@H](O)C(F)(F)F)c2=O)n1 [Example 217]	human V1a receptor (Homo sapiens, UniProt P37288)	upper bin

----------
- MEASURED TARGET: human V2 receptor (Homo sapiens)
- Construct: expressed in transfected cells; host or cells: CHO K1 (ATCC) expressing firefly luciferase under a CRE-responsive promoter
- Sequence (P30518 whole entry): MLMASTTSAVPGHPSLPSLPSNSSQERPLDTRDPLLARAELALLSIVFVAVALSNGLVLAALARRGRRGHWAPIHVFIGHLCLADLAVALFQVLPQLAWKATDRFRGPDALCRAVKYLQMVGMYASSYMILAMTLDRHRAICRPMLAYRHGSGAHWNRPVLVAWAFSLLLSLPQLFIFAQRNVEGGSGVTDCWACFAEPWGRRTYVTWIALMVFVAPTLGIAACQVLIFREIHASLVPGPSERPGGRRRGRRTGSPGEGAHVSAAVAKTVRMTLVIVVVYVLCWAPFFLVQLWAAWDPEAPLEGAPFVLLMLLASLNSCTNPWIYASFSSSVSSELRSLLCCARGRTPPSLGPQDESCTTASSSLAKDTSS
- ASSAY NAME: Cellular in vitro assay for determining vasopressin receptor activity, V2 receptor cell line (CHO, CRE-luciferase)
- Format: cell-based
- EXPERIMENTAL SETUP: CHO cell line transfected with human V2 receptor; [Arg8]-vasopressin at EC50 concentration, 3 hours; read-out: IC50 hV2
pIC50: −log10 of the molar value.
PROPERTY NAME: pIC50

> print(dat)
                                   compound  property.name  assay.result
1  NC(=O)[C@@H]1CCCN1c1ccncc1-n1cnc(Cn2nc(-c3ccc(Cl)cc3)n(C[C@H](O)C(F)(F)F)c2=O)n1          pIC50          5.37
2  O=C(c1ccccc1-n1cnc(Cn2nc(-c3ccc(Cl)cc3)n(C[C@H](O)C(F)(F)F)c2=O)n1)N1CCC(F)(F)C1          pIC50          6.01
3  CCN(CC)C(=O)c1ccccc1-n1cnc(Cn2nc(-c3ccc(Cl)cc3)n(C[C@H](O)C(F)(F)F)c2=O)n1          pIC50          6.29
4  Cc1ccnc(NC(=O)c2ccccc2-n2cnc(Cn3nc(-c4ccc(Cl)cc4)n(C[C@H](O)C(F)(F)F)c3=O)n2)c1          pIC50          7.25
5  O=C(Nc1ncccc1-n1cnc(Cn2nc(-c3ccc(Cl)cc3)n(C[C@H](O)C(F)(F)F)c2=O)n1)C1CC1F (single isomer, unassigned) [Example 77]          pIC50          5.63
6  COCC(=O)Nc1cccnc1-n1cnc(Cn2nc(-c3ccc(Cl)cc3)n(C[C@H](O)C(F)(F)F)c2=O)n1          pIC50          6.46

----------
- MEASURED TARGET: human V1a receptor (Homo sapiens)
- ASSAY NAME: Cellular in vitro assay for determining vasopressin receptor activity, V1a receptor cell line (CHO, aequorin luminescence)
- EXPERIMENTAL SETUP: CHO cell line transfected with human V1a receptor; [Arg]-vasopressin at EC50 concentration; read-out: IC50 hV1a
Threshold 3 nM: IC50 strictly smaller gives met, otherwise not met.

> print(dat)
                                   molecule                    measured.target  group.label
1  Cc1ccc(NC(=O)c2ccccc2-n2cnc(Cn3nc(-c4ccc(Cl)cc4)n(C[C@H](O)C(F)(F)F)c3=O)n2)cn1 [Example 249]  human V1a receptor (Homo sapiens)          met
2  CC(NC(=O)c1ccccc1-n1cnc(Cn2nc(-c3ccc(Cl)cc3)n(C[C@H](O)C(F)(F)F)c2=O)n1)c1ccon1 (stereo partly drawn) [Example 216]  human V1a receptor (Homo sapiens)      not met
3  CC(C)C(C)NC(=O)c1ccccc1-n1cnc(Cn2nc(-c3ccc(Cl)cc3)n(C[C@H](O)C(F)(F)F)c2=O)n1 (mixture of isomers) [Example 345]  human V1a receptor (Homo sapiens)      not met
4  CC1C(=O)NCCN1C(=O)c1ccccc1-n1cnc(Cn2nc(-c3ccc(Cl)cc3)n(C[C@H](O)C(F)(F)F)c2=O)n1 (mixture of isomers) [Example 280]  human V1a receptor (Homo sapiens)      not met
5  O=C(Nc1ccccc1O)c1ccccc1-n1cnc(Cn2nc(-c3ccc(Cl)cc3)n(C[C@H](O)C(F)(F)F)c2=O)n1 [Example 247]  human V1a receptor (Homo sapiens)          met
6  CC(C)(N)CNC(=O)c1ccccc1-n1cnc(Cn2nc(-c3ccc(Cl)cc3)n(C[C@H](O)C(F)(F)F)c2=O)n1 [Example 173]  human V1a receptor (Homo sapiens)      not met

----------
- MEASURED TARGET: human V1a receptor (Homo sapiens)
- ASSAY NAME: Cellular in vitro assay for determining vasopressin receptor activity, V1a receptor cell line (CHO, aequorin luminescence)
- EXPERIMENTAL SETUP: CHO cell line transfected with human V1a receptor; [Arg]-vasopressin at EC50 concentration; read-out: IC50 hV1a
PROPERTY NAME: IC50 (nM)

> print(dat)
                                   compound                    measured.target  property.name  assay.result
1  O=C(Nc1nccs1)c1ccccc1-n1cnc(Cn2nc(-c3ccc(Cl)cc3)n(C[C@H](O)C(F)(F)F)c2=O)n1 [Example 223]  human V1a receptor (Homo sapiens)           IC50           1.5
2  O=C(c1cccc(Cl)c1-n1cnc(Cn2nc(-c3ccc(Cl)cc3)n(C[C@H](O)C(F)(F)F)c2=O)n1)N1CCC[C@@H]1C(F)(F)F [Example 384]  human V1a receptor (Homo sapiens)           IC50           111
3  CC1(CNC(=O)c2ccccc2-n2cnc(Cn3nc(-c4ccc(Cl)cc4)n(C[C@H](O)C(F)(F)F)c3=O)n2)CCCO1 (mixture of isomers) [Example 202]  human V1a receptor (Homo sapiens)           IC50           4.3

----------
- MEASURED TARGET: human V1a receptor (Homo sapiens)
- Construct: expressed in transfected cells; host or cells: CHO K1 (ATCC), also stably transfected with a modified aequorin
- ASSAY NAME: Cellular in vitro assay for determining vasopressin receptor activity, V1a receptor cell line (CHO, aequorin luminescence)
- Format: cell-based
- EXPERIMENTAL SETUP: selectivity ratio IC50 hV2 / IC50 hV1a
PROPERTY NAME: ratio IC50 hV2/hV1a

COMPOUND	ASSAY RESULT
O=C(Cn1cncn1)Nc1ncccc1-n1cnc(Cn2nc(-c3ccc(Cl)cc3)n(C[C@H](O)C(F)(F)F)c2=O)n1 [Example 88]	28.7
O=C(Nc1cccnc1-n1cnc(Cn2nc(-c3ccc(Cl)cc3)n(CC(O)C(F)(F)F)c2=O)n1)C1CC1F (mixture of isomers) [Example 59]	185.4
O=C(Nc1ncccc1-n1cnc(Cn2nc(-c3ccc(Cl)cc3)n(C[C@H](O)C(F)(F)F)c2=O)n1)C1CC1 [Example 83]	106.5
Cc1cn(CC(=O)Nc2ncccc2-n2cnc(Cn3nc(-c4ccc(Cl)cc4)n(C[C@H](O)C(F)(F)F)c3=O)n2)nn1 [Example 164]	2.0
O=C(Nc1ccncc1-n1cnc(Cn2nc(-c3ccc(Cl)cc3)n(C[C@H](O)C(F)(F)F)c2=O)n1)[C@@H]1C[C@@H]1F (single isomer, unassigned) [Example 35]	52.7
CC(C)(N)CNc1ncccc1-n1cnc(Cn2nc(-c3ccc(Cl)cc3)n(C[C@H](O)C(F)(F)F)c2=O)n1 [Example 65]	2.0
O=C(CC1CCCC1)Nc1ncccc1-n1cnc(Cn2nc(-c3ccc(Cl)cc3)n(C[C@H](O)C(F)(F)F)c2=O)n1 [Example 150]	44.0

// data source = patent US11173151B2
